Readings of EC50 for the listed compounds
assayed_target: UniProtKB Q9NYK1
Sequence (Q9NYK1 27-1049): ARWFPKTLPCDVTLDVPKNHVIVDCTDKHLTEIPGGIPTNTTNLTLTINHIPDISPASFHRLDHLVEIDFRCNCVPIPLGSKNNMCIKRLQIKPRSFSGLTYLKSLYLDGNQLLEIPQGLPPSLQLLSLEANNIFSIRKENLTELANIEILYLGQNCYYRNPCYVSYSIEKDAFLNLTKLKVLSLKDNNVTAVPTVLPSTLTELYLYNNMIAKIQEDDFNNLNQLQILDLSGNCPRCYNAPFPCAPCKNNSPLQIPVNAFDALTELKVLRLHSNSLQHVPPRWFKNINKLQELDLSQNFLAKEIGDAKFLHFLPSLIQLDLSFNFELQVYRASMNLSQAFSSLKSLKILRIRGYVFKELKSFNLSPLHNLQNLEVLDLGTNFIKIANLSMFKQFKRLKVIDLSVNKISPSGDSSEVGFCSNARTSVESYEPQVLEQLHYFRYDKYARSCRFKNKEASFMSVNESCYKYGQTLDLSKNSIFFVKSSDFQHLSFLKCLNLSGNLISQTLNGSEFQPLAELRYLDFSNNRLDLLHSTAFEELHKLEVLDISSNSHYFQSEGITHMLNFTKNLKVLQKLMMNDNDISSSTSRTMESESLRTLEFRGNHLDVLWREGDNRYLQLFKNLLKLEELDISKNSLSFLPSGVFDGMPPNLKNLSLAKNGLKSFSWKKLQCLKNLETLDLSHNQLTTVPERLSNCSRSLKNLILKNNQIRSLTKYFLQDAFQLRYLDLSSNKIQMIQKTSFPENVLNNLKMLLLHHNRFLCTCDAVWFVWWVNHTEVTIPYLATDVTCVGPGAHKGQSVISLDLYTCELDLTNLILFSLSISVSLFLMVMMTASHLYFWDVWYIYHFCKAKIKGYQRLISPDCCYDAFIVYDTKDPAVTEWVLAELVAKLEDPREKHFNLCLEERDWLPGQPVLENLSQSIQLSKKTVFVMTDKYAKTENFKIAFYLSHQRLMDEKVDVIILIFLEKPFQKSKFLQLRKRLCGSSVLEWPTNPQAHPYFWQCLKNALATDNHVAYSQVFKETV
assay_details: Agonistic activity on human TLR7 in HEK-Blue hTLR7 cells (QUANTI-Blue)
condition_info: 24 h incubation, OD650, read-out: hTLR 7 EC50

[
  {
    "compound": "CCCC[C@](C)(CO)Nc1nc(N)nc2cc(-c3cc(=S)[nH]cc3CN(C)CCOC)ccc12 [Example 65]",
    "EC50": "> 100 µM"
  },
  {
    "compound": "C=CCCN(C)Cc1cn(C)c(=O)cc1-c1cnc2c(N[C@@](C)(CO)CCCC)nc(N)nc2c1 [Example 7]",
    "EC50": "> 100 µM"
  },
  {
    "compound": "CCCC[C@](C)(CO)Nc1nc(N)nc2cc(-c3cc(=O)[nH]cc3COC)ccc12 [Example 68]",
    "EC50": "14.2 µM"
  },
  {
    "compound": "C=CCCN(C)Cc1c[nH]c(=O)cc1-c1cnc2c(N[C@@H](CO)CCCC)nc(N)nc2c1 [Example 42]",
    "EC50": "> 100 µM"
  },
  {
    "compound": "CCCC[C@](C)(CO)Nc1nc(N)nc2cc(-c3cc(=O)n(C)cc3CN(C)CCOC)ccc12 [Example 55]",
    "EC50": "> 100 µM"
  },
  {
    "compound": "C=CCCN(C)Cc1c[nH]c(=O)cc1-c1cnc2c(N[C@@](C)(CO)CCCC)nc(N)nc2c1 [Example 9]",
    "EC50": "31.8 µM"
  },
  {
    "compound": "CC#CCN(C)Cc1c[nH]c(=O)cc1-c1cnc2c(N[C@@](C)(CO)CCCC)nc(N)nc2c1 [Example 27]",
    "EC50": "> 100 µM"
  },
  {
    "compound": "C=CCCN(C)Cc1cn(C2CCN(C)CC2)c(=O)cc1-c1cnc2c(N[C@@](C)(CO)CCCC)nc(N)nc2c1 [Example 37]",
    "EC50": "> 100 µM"
  },
  {
    "compound": "CCCCN(C)Cc1c[nH]c(=O)cc1-c1cnc2c(N[C@@](C)(CO)CCCC)nc(N)nc2c1 [Example 69]",
    "EC50": "12 µM"
  },
  {
    "compound": "CCCCN(C)Cc1c[nH]c(=O)cc1-c1ccc2c(N[C@@](C)(CO)CCCC)nc(N)nc2c1 [Example 36]",
    "EC50": "> 100 µM"
  }
]
